target: APOL1; settings: ASO, A431, 0.25 µM
After the bases stand the sugars from the 5' end (letter, count) and the backbone: PS all phosphorothioate, else s phosphorothioate and o phosphodiester by linkage. Methylation of C is not given here. e = 2'-O-(2-methoxyethyl) (MOE); k = constrained ethyl (cEt); d = 2'-deoxy (DNA)
# target mRNA inhibition per entry
reported_property: target mRNA inhibition (%)

residue_codes | uom | quantitative_readout
GGAATTATGGAATTGC (sugars kkddddekekeddddd, PS) | % | 89
GGTTCAAAAGCAGCAT (sugars k4 d9 k3, PS) | % | 91
CGTCAATATATTCTTT (sugars kkkddddkekeddddd, PS) | % | 90
CACCATAGCACGAAGC (sugars k4 d9 k3, PS) | % | 53
GAACATTGAAACACCA (sugars k4 d9 k3, PS) | % | 70
ATAATGGTAGGTCTAC (sugars k4 d9 k3, PS) | % | 78
ACAGCATTGAGTACAA (sugars k4 d9 k3, PS) | % | 78
CACATCATTGGGTTAT (sugars k4 d9 k3, PS) | % | 84
GCTTTAAACTCAGGTG (sugars kkkddddkdkdkdddd, PS) | % | 81
ATTTCTTGATGTGGTG (sugars kdddddkekekddddd, PS) | % | 80
GCTAATTTTCTGACTG (sugars kkdddddkekeddddd, PS) | % | 82

---

target: MALAT1; details: ASO, A431, 0.005 µM
After the bases stand the sugars from the 5' end (letter, count) and the backbone: PS all phosphorothioate, else s phosphorothioate and o phosphodiester by linkage. Methylation of C is not given here. k = constrained ethyl (cEt); d = 2'-deoxy (DNA)
Group membership follows target mRNA inhibition per the scheme 1 (below 10%), 2 (10% to below 20%), 3 (20% or more)

residue_codes | class_assignment
GCCCACAAGGATCCAA (sugars k3 d10 k3, PS) | 2
TACTATCCCATCACTG (sugars k3 d10 k3, PS) | 3
CCCTTTACACCTCAGT (sugars k3 d10 k3, PS) | 3
GAGGCAAGTCCTCATT (sugars k3 d10 k3, PS) | 2
TAGTTCTTCGGTTAAA (sugars k3 d10 k3, PS) | 1
GGATCATTAAGCCACT (sugars k3 d10 k3, PS) | 2
GAAGAGCATTGGAGAT (sugars k3 d10 k3, PS) | 3
GCATATGCAGATAATG (sugars k3 d10 k3, PS) | 3
ATAAGGACAGCTAAGA (sugars k3 d10 k3, PS) | 1
CTGCAGAGTTTGAGTG (sugars k3 d10 k3, PS) | 1

---

target: IRF5; conditions: ASO, KARPAS-229, 4 µM
After the bases stand the sugars from the 5' end (letter, count) and the backbone: PS all phosphorothioate, else s phosphorothioate and o phosphodiester by linkage. Methylation of C is not given here. e = 2'-O-(2-methoxyethyl) (MOE); k = constrained ethyl (cEt); d = 2'-deoxy (DNA)
Record Criterion met whenever target mRNA inhibition is at 20% or higher; record Criterion not met when lower.

residue_codes | class_assignment
GCTTGGTCTTGACCTC (sugars kkdddddddddkdkdk, PS) | Criterion not met
TCTTGACCTCCCGCTG (sugars kkddddddddkekekk, PS) | Criterion not met
CATTCCATATACACAC (sugars kkddddddddddkeke, PS) | Criterion met
GCATTCCATATACACA (sugars k3 d9 k3 e1, PS) | Criterion met
GCCTTCTGCAGGGAGT (sugars k3 d10 k3, PS) | Criterion not met
AGGAAGTGAGTCTCAA (sugars k3 d9 k3 e1, PS) | Criterion met
TGCACTGACACAGGCG (sugars kkddddddddkekekk, PS) | Criterion not met
GAGTGAGACGAGCAAA (sugars k3 d10 k3, PS) | Criterion met
CTTTTTGCTCTAAACC (sugars k3 d10 k3, PS) | Criterion not met
TTCTTGTCTAGTGTCA (sugars k3 d10 k3, PS) | Criterion met
GGTCTTGACCTCCCGC (sugars kekdddddddddeekk, PS) | Criterion met
CCTTCTGCAGGGAGTC (sugars kkkddddddddkekek, PS) | Criterion not met
GTTCTTGGACTCTCAA (sugars kkddddddddkekekk, PS) | Criterion not met
CACATCTCCACATCAG (sugars k3 d9 k3 e1, PS) | Criterion met
CGGTCTTTGAGGTCTG (sugars kkkddddddddkdkdk, PS) | Criterion met
AGGAGTGAGACGAGCA (sugars kkkddddddddkdkdk, PS) | Criterion met
GCTTGGTCTTGACCTC (sugars k3 d9 k3 e1, PS) | Criterion met
GTTGAATTTTGTGACT (sugars k3 d9 k3 d1, PS) | Criterion not met
AGATGGTGTTATCTCC (sugars kdddddddddkekeke, PS) | Criterion not met
TTATTTCTGCTCCAGG (sugars kkddddddddkekekk, PS) | Criterion not met
GCTTGGTCTTGACCTC (sugars kdddddddddkekeke, PS) | Criterion not met
TTAAGGGCACAGCGCA (sugars k3 d10 k3, PS) | Criterion not met

Origin of measurements: the OligoGym collection
